Porcine Ventricle IC25 values for the molecules below.
molecular target: Porcine Ventricle myofibrils (left ventricle of Yucatan minipigs) (Sus scrofa); construct: Myofibrils from porcine cardiac muscle was isolated from the left ventricle of Yucatan minipigs; tissue Exemplar Genetics; host or cells: left ventricle of Yucatan minipigs; experiment: Myofibril ATPase assay (PK/LDH NADH-coupled), ventricle myofibrils; format: biochemical; settings: Table 8
Sequence (P79293 whole entry): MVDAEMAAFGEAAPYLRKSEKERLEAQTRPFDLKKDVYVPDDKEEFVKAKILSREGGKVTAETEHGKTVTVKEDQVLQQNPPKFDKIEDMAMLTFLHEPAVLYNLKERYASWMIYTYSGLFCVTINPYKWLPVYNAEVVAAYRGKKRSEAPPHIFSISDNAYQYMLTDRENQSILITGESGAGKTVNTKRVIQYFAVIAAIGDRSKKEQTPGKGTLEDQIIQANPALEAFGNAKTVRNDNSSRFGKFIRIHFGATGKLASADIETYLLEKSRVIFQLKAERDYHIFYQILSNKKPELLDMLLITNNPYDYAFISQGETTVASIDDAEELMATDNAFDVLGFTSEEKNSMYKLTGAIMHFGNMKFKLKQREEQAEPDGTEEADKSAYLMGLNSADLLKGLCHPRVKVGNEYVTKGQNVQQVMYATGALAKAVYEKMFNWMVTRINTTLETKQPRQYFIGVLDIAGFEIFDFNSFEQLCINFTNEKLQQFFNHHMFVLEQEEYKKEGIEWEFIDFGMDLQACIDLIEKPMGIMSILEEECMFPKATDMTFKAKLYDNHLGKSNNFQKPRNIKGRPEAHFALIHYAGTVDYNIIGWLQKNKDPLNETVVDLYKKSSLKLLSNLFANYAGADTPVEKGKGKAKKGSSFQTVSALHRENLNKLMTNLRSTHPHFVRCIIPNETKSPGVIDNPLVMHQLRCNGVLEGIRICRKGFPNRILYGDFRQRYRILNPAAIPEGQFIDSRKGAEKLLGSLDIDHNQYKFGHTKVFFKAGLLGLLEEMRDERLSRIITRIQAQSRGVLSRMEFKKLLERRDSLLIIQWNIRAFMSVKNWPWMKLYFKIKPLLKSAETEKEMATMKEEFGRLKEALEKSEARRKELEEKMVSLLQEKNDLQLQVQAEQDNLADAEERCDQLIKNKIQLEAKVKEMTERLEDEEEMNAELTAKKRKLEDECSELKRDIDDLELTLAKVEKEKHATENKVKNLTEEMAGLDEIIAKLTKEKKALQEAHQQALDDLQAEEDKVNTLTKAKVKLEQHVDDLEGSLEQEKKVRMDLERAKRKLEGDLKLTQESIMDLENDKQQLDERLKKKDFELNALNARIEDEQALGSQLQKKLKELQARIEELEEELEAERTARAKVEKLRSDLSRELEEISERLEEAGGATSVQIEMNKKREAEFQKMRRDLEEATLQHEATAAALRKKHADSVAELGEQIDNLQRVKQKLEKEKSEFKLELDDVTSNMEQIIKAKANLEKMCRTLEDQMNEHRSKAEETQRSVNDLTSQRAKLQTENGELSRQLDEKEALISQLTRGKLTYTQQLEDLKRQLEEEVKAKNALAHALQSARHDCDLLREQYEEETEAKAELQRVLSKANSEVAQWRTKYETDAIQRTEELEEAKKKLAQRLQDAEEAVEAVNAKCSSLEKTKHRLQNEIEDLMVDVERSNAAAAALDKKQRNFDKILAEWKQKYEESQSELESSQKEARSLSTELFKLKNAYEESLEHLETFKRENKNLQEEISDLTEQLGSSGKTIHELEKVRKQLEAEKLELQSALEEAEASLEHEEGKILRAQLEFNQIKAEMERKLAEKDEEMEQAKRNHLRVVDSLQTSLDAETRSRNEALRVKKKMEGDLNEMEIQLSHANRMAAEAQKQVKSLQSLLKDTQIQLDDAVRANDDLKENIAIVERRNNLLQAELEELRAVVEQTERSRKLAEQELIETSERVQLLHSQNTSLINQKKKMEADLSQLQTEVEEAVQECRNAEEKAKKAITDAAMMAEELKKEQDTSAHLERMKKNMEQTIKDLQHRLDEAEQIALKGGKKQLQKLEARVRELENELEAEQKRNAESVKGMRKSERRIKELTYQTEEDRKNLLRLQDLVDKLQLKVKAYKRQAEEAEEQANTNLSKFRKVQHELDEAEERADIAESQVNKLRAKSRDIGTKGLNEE
// units = nM; emit number, no label

CCc1cc(F)cnc1[C@@H](C)NC(=O)CN1Cc2c(ccc(F)c2F)NC1=O [Compound B14]    84.4
C[C@H](NC(=O)CN1C(=O)Nc2ccc(F)c(F)c2C12CC2)c1ncc(C#N)cc1Cl [Compound B307]    70
Cc1cc(F)cc2c1CN(CC(=O)N[C@H](C)c1ccc(C#N)cc1F)C(=O)N2 [Compound B56]    1991

Data request, read-out Porcine Ventricle IC25, for O=C(CN1Cc2c(ccc(F)c2F)NC1=O)N[C@H](CO)c1ncc(F)cc1F [Compound B175]
100000

----------
system: Rabbit Skeletal myofibrils (rabbit psoas muscle); experiment: Myofibril ATPase assay (PK/LDH NADH-coupled), skeletal myofibrils; type: biochemical; settings: Table 8
measured.endpoint: Rabbit Psoas IC25 (µM)
// units = µM; emit number, no label

Here's what some known entries look like.
C[C@H](NC(=O)CN1Cc2c(ccc(F)c2F)NC1=O)c1cc2c(cn1)N(C)CCO2 [Compound B361]    100.00
Cc1ccc([C@@H](C)NC(=O)CN2Cc3cc(F)ccc3NC2=O)c(F)c1 [Compound B209]    100
O=C(CN1Cc2c(ccc(F)c2F)NC1=O)N[C@H](CO)c1ncc(F)cc1F [Compound B175]    100

Query Rabbit Psoas IC25 on Rabbit Skeletal myofibrils (rabbit psoas muscle) for N#Cc1cnc2c(c1)CC[C@H]2NC(=O)CN1Cc2c(ccc(F)c2F)NC1=O [Compound B89]
0.07847

Then C[C@@H](C(=O)N[C@@H](CO)c1ccc(F)cc1F)N1Cc2c(Cl)cccc2NC1=O [Compound B212] ?
77.91

Then C[C@H]1c2ccccc2NC(=O)N1CC(=O)N[C@@H](CO)c1ccc(F)cc1F [Compound B201] ?
18.61

Then C[C@H](NC(=O)CN1C(=O)Nc2ccc(F)cc2[C@H]1C(F)(F)F)c1ccc(F)cc1F [Compound B235] ?
100

Then C[C@@H](NC(=O)CN1Cc2c(ccc(F)c2F)NC1=O)c1ccc(C#N)cn1 [Compound B135] ?
1.618

----------
Tested on: isoflurane-anesthetized SD rats
Experiment: In vivo echocardiography of systolic cardiac performance (FS, SWT, HR, LV volumes) after a single oral dose
Details: Rattus norvegicus, EDV (LV volume, Teichholz formula), single dose 10 mg/kg PO, ~2 hrs post-dosing, vs. vehicle, read-out: EDV % vs. VEH
Protocol: Experiments were performed to evaluate the in vivo ability of the compounds of the disclosure to modulate systolic cardiac performance. Non-invasively echocardiography was used to assess cardiac indicators in isoflurane-anesthetized SD rats. […] Cardiac function/geometry were recorded at two separate time-points/days: once prior to dosing (i.e., at baseline, day −2) and at ˜2 hrs post-dosing (day 0). […]
measured.endpoint: change in vivo at 10 mg/kg (%)
// units = %; emit number, no label

Here's what some known entries look like.
N#Cc1c(F)ccc2c1CN(CC(=O)N[C@@H](CO)c1ccc(F)cc1F)C(=O)N2 [Compound B152]    -6
O=C(CN1Cc2cc(F)ccc2NC1=O)N[C@@H](CO)c1ncc(F)cc1F [Compound B181]    -6
C[C@H](NC(=O)CN1Cc2c(ccc(F)c2F)NC1=O)c1ncc(F)cc1F [Compound B191]    9

Data request, read-out change in vivo at 10 mg/kg, for C[C@H](NC(=O)CN1Cc2cc(F)ccc2NC1=O)c1ccc(F)cc1F [Compound B247]
7

Then C[C@H](NC(=O)CN1Cc2c(ccc(F)c2F)NC1=O)c1ccc(C#N)cc1F [Compound B189] ?
19

Then O=C(CN1Cc2cc(F)ccc2NC1=O)N[C@@H]1COc2cc(F)cc(F)c21 [Compound B145] ?
11

Then C[C@@H](NC(=O)CN1Cc2cc(F)c(F)cc2NC1=O)c1ncc(C#N)cc1F [Compound B357] ?
5

Then O=C(CN1C(=O)Nc2cccnc2C12CC2)N[C@@H]1COc2cc(F)cc(F)c21 [Compound N33] ?
2
